Tested on: Staphylococcus aureus
Assay: Antibacterial activity against erythromycin-resistant Staphylococcus aureus PU-32 expressing erm(A) gene by broth microdilution method
Type: functional

smiles input	units	MIC
CC[C@H]1OC(=O)[C@H](C)C(=O)[C@H](C)[C@@H](O[C@H]2O[C@H](C)C[C@H](N(C)C)[C@H]2O)[C@](C)(OC)C[C@@H](C)/C(=N\OC/C=C/c2cccnc2)[C@H](C)[C@@H]2OC(=O)O[C@]12C	µg/mL	0.125
CC[C@H]1OC(=O)[C@H](C)C(=O)[C@H](C)[C@@H](O[C@H]2O[C@H](C)C[C@H](N(C)C)[C@H]2O)[C@](C)(OC)C[C@@H](C)/C(=N\OC/C=C/c2cncc3ccccc23)[C@H](C)[C@@H]2OC(=O)O[C@]12C	µg/mL	0.5
